# ASSAYED_SYSTEM: T1, human ROR2 expressed on the cell surface (human, UniProt Q01974 34-943)
# T1 construct: Endogenous ROR2 of human tumour cell lines; also called cell surface ROR2; ROR2 on tumour cell lines
# T1 sequence (Q01974 34-943 limits assumed): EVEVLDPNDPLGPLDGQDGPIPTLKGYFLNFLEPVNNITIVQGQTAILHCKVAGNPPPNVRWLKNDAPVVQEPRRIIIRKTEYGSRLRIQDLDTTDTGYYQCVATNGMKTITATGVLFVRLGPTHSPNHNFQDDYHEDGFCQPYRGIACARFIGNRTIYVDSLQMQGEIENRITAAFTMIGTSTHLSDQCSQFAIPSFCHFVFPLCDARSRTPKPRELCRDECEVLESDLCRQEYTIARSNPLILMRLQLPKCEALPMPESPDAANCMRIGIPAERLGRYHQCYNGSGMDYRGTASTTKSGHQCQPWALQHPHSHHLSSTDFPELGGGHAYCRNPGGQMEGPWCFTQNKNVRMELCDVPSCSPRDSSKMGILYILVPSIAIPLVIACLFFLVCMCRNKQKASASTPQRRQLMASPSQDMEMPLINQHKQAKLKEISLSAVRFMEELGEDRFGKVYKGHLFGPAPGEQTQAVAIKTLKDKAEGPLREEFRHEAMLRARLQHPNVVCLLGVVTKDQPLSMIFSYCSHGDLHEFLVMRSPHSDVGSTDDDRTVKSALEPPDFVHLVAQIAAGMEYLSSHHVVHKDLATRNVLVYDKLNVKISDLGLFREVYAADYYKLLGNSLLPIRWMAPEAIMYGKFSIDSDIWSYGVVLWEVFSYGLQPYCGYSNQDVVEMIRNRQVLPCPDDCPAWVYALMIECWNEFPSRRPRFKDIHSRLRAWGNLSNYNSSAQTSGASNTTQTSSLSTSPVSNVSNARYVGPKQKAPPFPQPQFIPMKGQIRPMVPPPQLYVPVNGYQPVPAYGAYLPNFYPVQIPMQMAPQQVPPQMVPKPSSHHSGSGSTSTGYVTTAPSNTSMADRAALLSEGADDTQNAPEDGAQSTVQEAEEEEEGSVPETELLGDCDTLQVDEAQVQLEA
# ASSAY: flow cytometry, SKOV3 cells (ovarian CA)
# Parameters: unit not given here
// NB: equality with 40 counts as no (0); only binding intensity strictly below is yes (1)

BINDER	CLASS_LABEL
ROR2-27 full length human IgG1 antibody (antibody, V domains shown, also called clone #27; clone #027 IgG1) VH: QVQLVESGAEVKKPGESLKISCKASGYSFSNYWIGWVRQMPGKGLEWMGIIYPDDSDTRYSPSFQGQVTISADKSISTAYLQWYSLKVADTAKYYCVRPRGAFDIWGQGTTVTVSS VL: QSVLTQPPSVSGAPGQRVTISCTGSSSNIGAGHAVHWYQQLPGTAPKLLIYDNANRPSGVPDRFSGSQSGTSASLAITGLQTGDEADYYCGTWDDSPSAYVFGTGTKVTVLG	yes (1)

Pending binder:
Query :: Input ROR2-90 full length human IgG1 antibody (antibody, V domains shown, also called clone #90; antibody #90) VH: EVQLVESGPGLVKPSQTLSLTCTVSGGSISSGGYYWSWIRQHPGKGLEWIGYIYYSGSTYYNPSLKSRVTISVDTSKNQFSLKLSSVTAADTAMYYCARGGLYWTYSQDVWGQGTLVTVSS VL: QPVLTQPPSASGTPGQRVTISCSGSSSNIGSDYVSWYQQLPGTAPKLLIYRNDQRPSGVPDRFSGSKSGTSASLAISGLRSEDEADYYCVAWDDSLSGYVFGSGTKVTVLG ; condition: binding intensity strictly below 40. Does it hold?
Result :: no (0)
